# credit: patent US11566007B2

Biological target: NRAS Q61K (Homo sapiens (Human), UniProt P01111+P62937, Q61K)
Sequence (P01111 whole entry Q61K): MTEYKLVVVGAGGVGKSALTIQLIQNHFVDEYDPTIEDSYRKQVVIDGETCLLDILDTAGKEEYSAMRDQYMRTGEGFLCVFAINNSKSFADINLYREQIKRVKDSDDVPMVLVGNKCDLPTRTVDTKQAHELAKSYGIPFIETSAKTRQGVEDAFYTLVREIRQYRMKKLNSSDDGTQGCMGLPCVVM
Sequence (P62937 whole entry): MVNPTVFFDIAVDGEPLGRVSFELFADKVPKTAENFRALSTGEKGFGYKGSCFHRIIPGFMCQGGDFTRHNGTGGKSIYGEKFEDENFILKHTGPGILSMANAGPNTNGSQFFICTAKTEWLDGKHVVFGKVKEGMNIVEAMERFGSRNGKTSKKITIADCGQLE
Test: Ras-Raf (BRAF RBD) disruption / FRET / MOA assay, NRAS Q61K
Format: biochemical
Conditions: NRAS Q61K; Ras-Raf disruption/FRET/MOA assay; read-out: IC50* NRAS Q61K FRET data
pIC50: −log10 of the molar value.
What pIC50 was measured for each of the following?

Would you please look over these solved cases?
COMPOUND | ASSAY_ENDPOINT | REPORTED_VALUE
C=CC(=O)N1CCN(C(=O)N(C)[C@H](C(=O)N[C@H]2Cc3nc(cs3)-c3ccc4c(c3)c(c(-c3cccnc3[C@H](C)OC)n4CC)CC(C)(C)COC(=O)[C@@H]3CCCN(N3)C2=O)C(C)C)[C@H]2CC[C@H]21 (atropisomer, axis not shown) | pIC50 | 7.00 to 8.00
C=CC(=O)N1CC[C@H](C(=O)N(C)[C@@H](CC(F)(F)F)C(=O)N[C@H]2Cc3cccc(c3)-c3ccc4c(c3)c(c(-c3cccnc3[C@H](C)OC)n4CC)CC(C)(C)COC(=O)[C@@H]3CCCN(N3)C2=O)C1 (atropisomer, axis not shown) | pIC50 | 5.00 to 6.00
C=CC(=O)NCCN1CCN(C(=O)N(C)[C@H](C(=O)N[C@H]2Cc3nc(cs3)-c3ccc4c(c3)c(c(-c3cccnc3[C@H](C)OC)n4CC)CC(C)(C)COC(=O)[C@@H]3CCCN(N3)C2=O)C(C)C)CC1 (atropisomer, axis not shown) | pIC50 | 7.00 to 8.00

Here is the next item to consider.
For record C=CC(=O)N1CC[C@H](C(=O)N(C)[C@H](C(=O)N[C@H]2Cc3cccc(c3)-c3ccc4c(c3)c(c(-c3cc(N5CCN(C)CC5)cnc3[C@H](C)OC)n4CC)CC(C)(C)COC(=O)[C@@H]3CCCN(N3)C2=O)C(C)C)C1 (single isomer, unassigned) the listed pIC50 is 5.00 to 6.00

----------
Molecular target: K-Ras G13C (Homo sapiens (Human), UniProt P01116+P62937, G13C)
Sequence (P01116-2 other isoform, or with tags, fused parts or gaps G13C, one chain of several): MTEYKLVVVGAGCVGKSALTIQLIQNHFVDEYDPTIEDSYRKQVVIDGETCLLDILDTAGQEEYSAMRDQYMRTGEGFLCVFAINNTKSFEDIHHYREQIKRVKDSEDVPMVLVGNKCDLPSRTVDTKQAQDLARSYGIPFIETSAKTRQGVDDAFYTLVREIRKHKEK
Experiment: Ras-Raf (BRAF RBD) disruption / FRET / MOA assay, KRAS G13C
Assay type: biochemical
Details: KRAS G13C; Ras-Raf disruption/FRET/MOA assay; read-out: IC50* KRAS G13C FRET data
ASSAY_ENDPOINT: IC50

Would you please look over these solved cases?
COMPOUND | TARGET_OF_ASSAY | IC50
C=CC(=O)N1CC(OC[C@H](C(=O)N[C@H]2Cc3cc(cc(C(F)F)c3)-c3ccc4c(c3)c(c(-c3cccnc3[C@H](C)OC)n4CC)CC(C)(C)COC(=O)[C@@H]3CCCN(N3)C2=O)C(C)C)C1 (atropisomer, axis not shown) | K-Ras G13C (Homo sapiens (Human), UniProt P01116+P62937, G13C) | 1000 to 10000 nM
CCn1c(-c2cccnc2[C@H](C)OC)c2c3cc(ccc31)-c1cc(F)cc(c1)C[C@H](NC(=O)[C@@H](COC1CN(C(=O)C#CC(C)(C)N(C)C)C1)C(C)C)C(=O)N1CCC[C@H](N1)C(=O)OCC(C)(C)C2 (atropisomer, axis not shown) | K-Ras G13C (Homo sapiens (Human), UniProt P01116+P62937, G13C) | 1000 to 10000 nM
C=CC(=O)N1CC[C@@]2(CCN(C(=O)N(C)[C@H](C(=O)N[C@H]3Cc4nc(cs4)-c4ccc5c(c4)c(c(-c4cccnc4[C@H](C)OC)n5CC)CC(C)(C)COC(=O)[C@@H]4CCCN(N4)C3=O)C(C)C)C2)C1 (atropisomer, axis not shown) | K-Ras G13C (Homo sapiens (Human), UniProt P01116+P62937, G13C) | 100 to 1000 nM
C=CC(=O)N1CC[C@@H]2[C@H]1CN2C(=O)N(C)[C@H](C(=O)N[C@H]1Cc2nc(cs2)-c2ccc3c(c2)c(c(-c2cccnc2[C@H](C)OC)n3CC)CC(C)(C)COC(=O)[C@@H]2CCCN(N2)C1=O)C(C)C (atropisomer, axis not shown) | K-Ras G13C (Homo sapiens (Human), UniProt P01116+P62937, G13C) | 10 to 100 nM
CCn1c(-c2cccnc2[C@H](C)OC)c2c3cc(ccc31)-c1cc(O)cc(c1)C[C@H](NC(=O)[C@H](C(C)C)N1CC[C@]3(CCN(C(=O)/C=C/CN(C)C)C3)C1=O)C(=O)N1CCC[C@H](N1)C(=O)OCC(C)(C)C2 (atropisomer, axis not shown) | K-Ras G13C (Homo sapiens (Human), UniProt P01116+P62937, G13C) | 10 to 100 nM
C=CC(=O)N(C)[C@H]1CN(C(=O)N(C)[C@H](C(=O)N[C@H]2Cc3nc(cs3)-c3ccc4c(c3)c(c(-c3cccnc3[C@H](C)OC)n4CC)CC(C)(C)COC(=O)[C@@H]3CCCN(N3)C2=O)C(C)C)C[C@@H]1F (atropisomer, axis not shown) | K-Ras G13C (Homo sapiens (Human), UniProt P01116+P62937, G13C) | 10 to 100 nM

Here is the next item to consider.
Sample C=CC(=O)N(C)[C@@H]1C[C@H](C)N(C(=O)N(C)[C@H](C(=O)N[C@H]2Cc3nc(cs3)-c3ccc4c(c3)c(c(-c3cccnc3[C@H](C)OC)n4CC)CC(C)(C)COC(=O)[C@@H]3CCCN(N3)C2=O)C(C)C)C1 (atropisomer, axis not shown) , system: K-Ras G13C (Homo sapiens (Human), UniProt P01116+P62937, G13C). Its IC50 is 100 to 1000 nM

----------
What pIC50 was measured for each of the following?
Molecular target: KRAS Q61H (Homo sapiens (Human), UniProt P01116+P62937, Q61H)
Sequence (P01116-2 other isoform, or with tags, fused parts or gaps Q61H, one chain of several): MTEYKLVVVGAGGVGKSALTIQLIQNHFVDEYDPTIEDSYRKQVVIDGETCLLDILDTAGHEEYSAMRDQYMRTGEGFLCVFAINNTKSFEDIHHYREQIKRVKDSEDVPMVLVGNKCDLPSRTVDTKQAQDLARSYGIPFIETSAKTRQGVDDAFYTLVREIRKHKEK
Test: Ras-Raf (BRAF RBD) disruption / FRET / MOA assay, KRAS Q61H
Type: biochemical
Details: Ras-Raf disruption/FRET/MOA assay; class symbols; read-out: KRAS Q61H FRET data IC50
pIC50: −log10 of the molar value.

Would you please look over these solved cases?
COMPOUND | pIC50
CO[C@@H](C)c1ncccc1-c1c2c3cc(ccc3n1CC(F)(F)F)-c1cc(F)cc(c1)C[C@H](NC(=O)[C@@H](COC1CN(C(=O)C#CC(C)(C)N(C)C)C1)C(C)C)C(=O)N1CCC[C@H](N1)C(=O)OCC(C)(C)C2 (atropisomer, axis not shown) | 5.00 to 6.00
CCn1c(-c2cccnc2[C@H](C)OC)c2c3cc(ccc31)-c1cccc(c1)C[C@H](NC(=O)[C@H](C(C)C)N(C)C(=O)[C@H]1CCN(C(=O)C#CC(C)(C)N(C)C)C1)C(=O)N1CCC[C@H](N1)C(=O)OCC(C)(C)C2 (atropisomer, axis not shown) [Example A290] | 5.00 to 6.00
C=CC(=O)N1CC[C@H](C(=O)N(C)[C@H](C(=O)N[C@H]2Cc3cc(O)cc(c3)-c3ccc4c(c3)c(c(-c3cc(C)ccc3[C@H](C)OC)n4CC)CC(C)(C)COC(=O)[C@@H]3CCCN(N3)C2=O)C(C)C)C1 (atropisomer, axis not shown) | 7.00 to 8.00

Field: pIC50. Fill in for each record below.
1. C=CC(=O)N1CC[C@H](C(=O)N(C)[C@H](C(=O)N[C@H]2Cc3cc(CF)cc(c3)-c3ccc4c(c3)c(c(-c3cccnc3[C@H](C)OC)n4CC)CC(C)(C)COC(=O)[C@@H]3CCCN(N3)C2=O)C(C)C)C1 (atropisomer, axis not shown) [Example A504]
2. C=CC(=O)N1CCCC2(CCN(C(=O)N(C)[C@H](C(=O)N[C@H]3Cc4nc(cs4)-c4ccc5c(c4)c(c(-c4cccnc4[C@H](C)OC)n5CC)CC(C)(C)COC(=O)[C@@H]4CCCN(N4)C3=O)C(C)C)CC2)C1 (atropisomer, axis not shown)
3. C=CC(=O)N1CC[C@H](C(=O)N(C)[C@H](C(=O)N[C@H]2Cc3cc(O)cc(c3)-c3ccc4c(c3)c(c(-c3csc(N(C)C)n3)n4CC)CC(C)(C)COC(=O)[C@@H]3CCCN(N3)C2=O)C(C)C)C1

6.00 to 7.00
6.00 to 7.00
5.00 to 6.00

Field: pIC50. Fill in for each record below.
1. C=C(F)C(=O)N1CC(N(C)C(=O)N(C)[C@H](C(=O)N[C@H]2Cc3nc(cs3)-c3ccc4c(c3)c(c(-c3cccnc3[C@H](C)OC)n4CC)CC(C)(C)COC(=O)[C@@H]3CCCN(N3)C2=O)C(C)C)C1 (atropisomer, axis not shown)
2. CCn1c(-c2cccnc2[C@H](C)OC)c2c3cc(ccc31)-c1csc(n1)C[C@H](NC(=O)[C@H](C(C)C)N(C)C(=O)N(C)C1CN(C(=O)/C=C/C3CN(C)C3)C1)C(=O)N1CCC[C@H](N1)C(=O)OCC(C)(C)C2 (atropisomer, axis not shown)

1. 6.00 to 7.00
2. 6.00 to 7.00
